# measured-target: Cruzipain (Trypanosoma cruzi)
# Sequence (P25779 whole entry): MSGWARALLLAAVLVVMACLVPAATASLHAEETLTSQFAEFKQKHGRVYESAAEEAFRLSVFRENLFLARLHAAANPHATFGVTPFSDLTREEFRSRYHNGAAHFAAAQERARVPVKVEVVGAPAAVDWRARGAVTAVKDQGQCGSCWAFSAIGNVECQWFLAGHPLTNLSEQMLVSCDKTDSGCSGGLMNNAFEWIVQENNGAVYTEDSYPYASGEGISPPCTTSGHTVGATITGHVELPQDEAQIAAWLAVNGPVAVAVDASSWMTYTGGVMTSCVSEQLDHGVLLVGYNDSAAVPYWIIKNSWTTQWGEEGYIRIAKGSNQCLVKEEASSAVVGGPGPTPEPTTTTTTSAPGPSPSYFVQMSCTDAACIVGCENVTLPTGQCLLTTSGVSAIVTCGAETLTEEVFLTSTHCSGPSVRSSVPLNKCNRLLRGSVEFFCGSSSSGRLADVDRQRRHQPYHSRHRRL
# experiment-notes: Inhibition of Trypanosoma cruzi recombinant cruzain
observation-type: IC50

INSERT INTO assay_data (molecule, measured_result) VALUES
  ('CC(=O)C1=CCCc2ccccc21', '1.36 µM'),
  ('C=CC(=O)C1=CCCc2ccc(Br)cc21', '0.8 µM'),
  ('NC(=S)N/N=C1/CCC(c2ccc(Br)cc2)C1 (configuration not stated)', '> 5 µM'),
  ('NC(=S)N/N=C1\CCOc2ccc(Br)cc21', '0.11 µM'),
  ('NC(=S)N/N=C1\CCc2ccccc2O1', '> 16 µM');

Problem: Entry under review: CC/C(=N\NC(N)=S)c1cccc(N)c1 . Reported IC50?
Solution: > 3.64 µM

Problem: Next: NC(=S)N/N=C1\CCc2ccccc21
Solution: > 17 µM

Problem: Next: NC(=S)N/N=C1\CCS(=O)(=O)c2ccccc21
Solution: > 20 µM

Problem: Next: C/C(=N/NC(N)=S)C1=CCCc2ccccc21
Solution: > 20 µM

Problem: Next: NC(=S)N/N=C1\CCOc2ccccc21
Solution: > 17 µM

Problem: Next: CC/C(=N\NC(N)=S)c1cccc(O)c1
Solution: > 33 µM

Problem: Next: NC(=S)N/N=C1/CCCC(c2ccc(Br)cc2)C1 (configuration not stated)
Solution: > 7 µM
